Hello, the source for this data is BigSolDB 2.1, in case you need it.

assay setup: in n-butanol, 298.15 K
reported endpoint: solubility (mole fraction)
Please respond with just the number, no unit label.

IN: # get_value(readout='solubility (mole fraction)', item= OC[C@H]1O[C@@H](c2ccc(Cl)c(Cc3ccc(O[C@H]4CCOC4)cc3)c2)[C@H](O)[C@@H](O)[C@@H]1O )
OUT: 8.49e-06

###

assay setup: in ethylene glycol, 318.15 K
reported endpoint: solubility (mole fraction)
Please respond with just the number, no unit label.

IN: # get_value(readout='solubility (mole fraction)', item= OC[C@H]1O[C@@H](c2ccc(Cl)c(Cc3ccc(O[C@H]4CCOC4)cc3)c2)[C@H](O)[C@@H](O)[C@@H]1O )
OUT: 8.59e-05
